pIC50: −log10 of the molar value.
Data export: pIC50 values recorded with CDK2 (UniProt P24941).

# compound, pIC50
measured = [
    ("O=C(Nc1csc(-c2ccncc2)n1)Nc1nccs1", "> 4.30"),
    ("O=C(Nc1cccc(N2CCCCC2)n1)Nc1csc(-c2ccncc2)n1", "> 4.30"),
    ("CCN(CC)Cc1cccc(NC(=O)Nc2csc(-c3ccncc3)n2)n1", "> 4.30"),
    ("Cc1cccnc1NC(=O)Nc1csc(-c2ccncc2)n1", "> 4.30"),
    ("O=C(Nc1ccc(C(F)(F)F)cn1)Nc1csc(-c2ccncc2)n1", "> 4.30"),
    ("O=C(Nc1csc(-c2cccnc2)n1)Nc1nccs1", "> 4.30"),
    ("CCc1ccnc(NC(=O)Nc2csc(-c3ccncc3)n2)c1", "> 4.30"),
    ("CN1CCN(c2cccc(NC(=O)Nc3csc(-c4ccncc4)n3)n2)CC1", "> 4.30"),
    ("O=C(Nc1ccccn1)Nc1csc(-c2cccnc2)n1", "> 4.30"),
    ("Cc1cccc(NC(=O)Nc2csc(-c3cccnc3)n2)n1", "> 4.30"),
    ("O=C(Nc1ccccn1)Nc1csc(-c2ccncc2)n1", "> 4.30"),
    ("O=C(Nc1csc(-c2ccncc2)n1)Nc1ccc2ccccc2n1", "> 4.30"),
    ("O=C(Nc1csc(-c2ccncc2)n1)Nc1cc2ccccc2c(Br)n1", "> 4.30"),
    ("O=C(Nc1ccccn1)Nc1csc(-c2ccccn2)n1", "> 4.30"),
    ("Cc1ccc(NC(=O)Nc2csc(-c3ccncc3)n2)nc1", "> 4.30"),
    ("CCCc1cccc(NC(=O)Nc2csc(-c3ccnc(CC)c3)n2)n1", "> 4.30"),
]

Source listed as the Kinase Knowledgebase extract (Sharma et al. 2016).
